Origin of the recorded values: patent US20240425478A1

- Target: Cyclin Dependent Kinase 2/Cyclin E1 (CDK2-cycE1) (Homo sapiens, UniProt P24941)
- Construct: purchased ProQinase 0050-0055-1
- Assay Info: CDK2-cycE1 TR-FRET (LANCE) enzyme assay
- Format: biochemical
- Conditions Used: Table O, enzymatic assay; read-out: CDK2 Ki
pKi: −log10 of the molar value.
Observed Property: pKi

>>> df
                                    compound  limit_operator  measured_result
 0  CC(C)NC(=O)O[C@@H]1CC[C@H](c2cc(Nc3ccnc(N)n3)n[nH]2)C1               =             8.82
 1  CNC(=O)c1cc(C)c(Nc2cc([C@H]3CC[C@@H](OC(=O)NC45CC(C4)C5)C3)[nH]n2)cn1               =             8.70
 2  CC[C@H](C)NC(=O)O[C@@H]1CC[C@H](c2cc(Nc3cccnn3)n[nH]2)C1 (single isomer, unassigned)               =             8.07
 3  Cn1nc(Nc2cc([C@H]3CC[C@@H](OC(=O)NC45CC(C4)C5)C3)[nH]n2)ccc1=O               >            10.00
 4  CNc1nccc(Nc2cc([C@H]3CC[C@@H](OC(=O)NC(C)C)C3)[nH]n2)n1               =             9.55
 5  Cc1ncccc1Nc1cc([C@H]2CC[C@@H](OC(=O)NC3(C)COC3)C2)[nH]n1               =             8.51
 6  CC(C)NC(=O)O[C@@H]1CC[C@H](c2cc(Nc3cncc(N(C)C)n3)n[nH]2)C1               =             8.38
 7  CC(C)NC(=O)O[C@@H]1CC[C@H](c2cc(Nc3ccnc(C(F)(F)F)n3)n[nH]2)C1               =             9.77
 8  CC(C)NC(=O)O[C@@H]1CC[C@H](c2cc(Nc3ccc(-n4ccnc4)nc3)n[nH]2)C1               =             8.00
 9  COCCn1nc(Nc2cc([C@H]3CC[C@@H](OC(=O)NC(C)C)C3)[nH]n2)ccc1=O               =             8.02
10  O=C(NC1CCOCC1)O[C@@H]1CC[C@H](c2cc(Nc3cccnn3)n[nH]2)C1               =             7.21
11  Cc1nnccc1Nc1cc([C@H]2CC[C@@H](OC(=O)NC(C)(C)C)C2)[nH]n1 [Example 11A]               =             9.20
12  CC(C)NC(=O)O[C@@H]1CC[C@H](c2cc(Nc3cnccn3)n[nH]2)C1               =             9.89
13  CC(C)(C)NC(=O)O[C@@H]1CC[C@H](c2cc(Nc3ccccn3)n[nH]2)C1               =             8.77
14  CNC(=O)c1ccc(Nc2cc([C@H]3CC[C@@H](OC(=O)NC4(C)CC4)C3)[nH]n2)c(C)n1               =             7.85
15  CC(C)NC(=O)O[C@@H]1CC[C@H](c2cc(Nc3ccc(-n4cccn4)nc3)n[nH]2)C1               =             7.85
